B1: SEPHS2 (parent)
chain: KASGRFGLLQGTSAETSGGLLICL

Variants of: B1
protocol-description: protein stability index of a GFP-peptide fusion (GPS, HEK-293T) (PSI 1-6); higher = more stable;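 further: lentivirally expressed fusions sorted by FACS into six bins by GFP to DsRed ratio, PSI derived from sequencing read proportions per bin multiplied by bin number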
condition-context: c terminus: a fixed tail appended
Tick Criterion met if protein stability index is 3 or greater. Tick Criterion not met if protein stability index is less than 3.

// below: answered variants
mutations	group-label
Q10M	Criterion met
L21S	Criterion not met
S3T	Criterion met

Qu. Check the entry `R5T` : does protein stability index equal or exceed 3?
Ans. Criterion met

Qu. Check `G11R` too.
Ans. Criterion met
